Numbers sourced from ChEMBL document CHEMBL5365487.

test_summary: In vivo stability in iv dosed Hsd:ICR (CD-1) mouse plasma assessed as stability measured after 45 mins by radio-HPLC analysis
Format: ADME, organism-based
details: Hsd:ICR (CD-1), plasma, read-out: Stability
# key: entry, value: remaining at 0.75 h
Give the value, in units of %, as a plain number.

- compound_string: "O=C(Nc1cn2cc(-c3ccccc3CC[18F])ccc2n1)[C@@H]1C[C@@H]1F"
  remaining at 0.75 h (%): 13

## Input Can you look up the measured remaining at 0.75 h of O=C(Nc1cn2cc(-c3cccc(F)c3OCC[18F])ccc2n1)[C@@H]1C[C@@H]1F for me?
## Output 18
